target: IGF2 (Homo sapiens, UniProt P01344); assay: SPR (Biacore T200) of recombinant IGF2R domain 11 mutants on immobilised biotinylated IGF2; type: binding; set-up: purchased GroPep; settings: Table 1; 25° C., HBS-EP pH 7.4
Sequence (P01344 25-91): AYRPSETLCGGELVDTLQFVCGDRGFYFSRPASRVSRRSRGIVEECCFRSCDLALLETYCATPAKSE
measured_parameter: Kinetics koff (s⁻¹)
Give the value, in units of s⁻¹, as a plain number.

Solved entries:
molecule | Kinetics koff (s⁻¹)
WT: wild-type human IGF2R domain 11 (residues 1511-1650), AB loop YSEKGL (protein) MKSNEHDDCQVTNPSTGHLFDLSSLSGRAGFTAAYSEKGLVYMSICGENENCPPGVGACFGQTRISVGKANKRLRYVDQVLQLVYKDGSPCPSKSGLSYKSVISFVCRPEAGPTNRPMLISLDKQTCTLFFSWHTPLACEQATECSV | 0.23
K1601A: domain 11 AB5 background + FG loop K1601A (protein) MKSNEHDDCQVTNPSTGHLFDLSSLSGRAGFTAAYAKGWGVYMSICGENENCPPGVGACFGQTRISVGKANKRLRYVDQVLQLVYKDGSPCPSASGLSYKSVISFVCRPEAGPTNRPMLISLDKQTCTLFFSWHTPLACEQATECSV | 0.0220
S1600A: domain 11 AB5 background + FG loop S1600A (protein) MKSNEHDDCQVTNPSTGHLFDLSSLSGRAGFTAAYAKGWGVYMSICGENENCPPGVGACFGQTRISVGKANKRLRYVDQVLQLVYKDGSPCPAKSGLSYKSVISFVCRPEAGPTNRPMLISLDKQTCTLFFSWHTPLACEQATECSV | 0.2126

Quick one: Kinetics koff of K1631R: domain 11 HI loop mutant K1631R, probably AB5 background (protein) MKSNEHDDCQVTNPSTGHLFDLSSLSGRAGFTAAYAKGWGVYMSICGENENCPPGVGACFGQTRISVGKANKRLRYVDQVLQLVYKDGSPCPSKSGLSYKSVISFVCRPEAGPTNRPMLISLDRQTCTLFFSWHTPLACEQATECSV ?
0.0867
